Source of measurements: PubChem BioAssay (NCI)

System: BT-549 breast
Test details: NCI-60 one-dose screen, 48 h (100 = growth as untreated, 0 = no growth, -100 = all killed)
Measurement context: 10 µM unless noted
The panel holds about 83,000 compounds, 20% with a hit somewhere; the sample as a whole holds those more often.
growth by entry:
Metric: growth (%)

>>> print(df.to_string())
                                   molecule  metric  result_unit  measurement
0  OCCNc1nc(NCCO)nc(Nc2ccc(C3=NN(c4cc(Cl)cc(Cl)c4)C(c4ccccc4)C3)cc2)n1 (configuration not stated)  growth            %         59.4
1  COc1cc(-c2csc(NC(=O)Nc3cc(Cl)cc(Cl)c3)n2)cc(OC)c1OC  growth            %         11.5
2  Cc1nn(-c2ccc(-c3ccc(OC(F)(F)F)cc3)cc2)c2nc(-c3ccccc3)nc(N)c12  growth            %         98.1
3  CCOC(=O)/C=C1\SC(=Nc2ccc(C#N)cc2)N(CCN2C(=O)/C(=C/C(=O)OCC)SC2=Nc2ccc(C#N)cc2)C1=O  growth            %         32.5
4  CCOC(=O)C(=Cc1c(-c2ccccc2)[nH]c2ccccc12)C(=O)OCC  growth            %         67.1
5  COc1cccc(NC(=O)Nc2ccc(Nc3ncnc4[nH]c(C)c(C)c34)cc2)c1  growth            %         97.7
6  c1ccc2c3c([nH]c2c1)C(c1ccc(C2NCCc4c2[nH]c2ccccc42)cc1)NCC3 (configuration not stated)  growth            %         86.9
